The values you see were collected from patent US20210347865A1.

# test_system: T1, native human ApoC3 (human, UniProt P02656 21-99, biotinylated in the captured-antigen assays (Tables 6 and 8); sites not stated)
# T1 construct: also called nhuApoC3; native huApoC3
# T1 sequence (P02656 21-99): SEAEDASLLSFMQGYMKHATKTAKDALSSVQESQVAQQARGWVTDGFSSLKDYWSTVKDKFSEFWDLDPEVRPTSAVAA
# assay_text: SPR, biotinylated antigen captured on SA chip, scFv periplasmic extract injected, pH 7.4
Recorded R0, one value per entry.
Number in RU, nothing else.

Below: 2 binders and their reported R0.
binder: 29G02 scFv (scFv, part only; not given: scFv linker, domain order, c-myc tag, V domains shown, not shown: another chain or arm of the molecule; small tags and cut ends) VH: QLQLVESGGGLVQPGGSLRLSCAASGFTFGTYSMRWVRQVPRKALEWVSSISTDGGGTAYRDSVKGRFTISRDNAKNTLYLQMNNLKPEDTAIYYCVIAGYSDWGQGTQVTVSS VL: DVVLTQTPGSLSVVPGESASISCKATQSLVHIDGKTYLYWLLQKPGQSPQRLIYQVSTRDSGVPDRFTGAGSGAEFTLKISGVKAEDAGVYYCAQDTYSTKTFGQGTKLEIK
measured_quantity: R0
unit_info: RU
experimental_result: 833

binder: 29F10 scFv (scFv, part only; not given: scFv linker, domain order, c-myc tag, V domains shown, not shown: another chain or arm of the molecule; large carriers; small tags and cut ends) VH: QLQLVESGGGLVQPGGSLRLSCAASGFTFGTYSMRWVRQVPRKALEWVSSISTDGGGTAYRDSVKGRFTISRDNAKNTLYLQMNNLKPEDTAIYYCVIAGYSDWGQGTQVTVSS VL: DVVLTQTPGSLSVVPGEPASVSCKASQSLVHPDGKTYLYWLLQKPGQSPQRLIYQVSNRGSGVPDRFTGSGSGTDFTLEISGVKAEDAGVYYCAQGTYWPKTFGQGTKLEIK
measured_quantity: R0
unit_info: RU
experimental_result: 808

Continue with the next binder.
Query string: Fill blank: measured R0 of the binder 29A06 scFv (scFv, part only; not given: scFv linker, domain order, c-myc tag, V domains shown, not shown: another chain or arm of the molecule; small tags and cut ends) VH: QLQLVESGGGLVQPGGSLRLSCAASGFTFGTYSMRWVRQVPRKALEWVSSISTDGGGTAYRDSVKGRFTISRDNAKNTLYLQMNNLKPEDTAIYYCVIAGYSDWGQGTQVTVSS VL: DVVLTQTPGSLSVVPGESASISCKASQNLVHSNGKTYLYWLLQKPGQSPQRLIYQVSNRGSEVPDRFTGSGSGTDFTLKISGVKAEDAGVYYCAQGTYWPKTFGQGTKLEIK is ____.
Result string: 1010
